Provide the recorded phosphorylation enrichment for the entries that follow.
- Tested on: c-Abl (mouse)
- Experiment: phosphorylation enrichment, bacterial display (enrichment ratio); higher = better substrate or ligand; peptides without Tyr show the background
Could you respond with only the numeric value?

For KPMDTYFDSTR [DYNC2H1_Y2230_YF] , write its phosphorylation enrichment.
0.615

For DNAFQYMLTDR [MYH7_Y164_YF] , write its phosphorylation enrichment.
0.47

For GSPPPYRRRKR [MBD1_Y403] , write its phosphorylation enrichment.
0.55

For RVAFQYGVTDL [MYBPC3_Y340_I336V] , write its phosphorylation enrichment.
0.764

For GDYYRYLAEVA [YWHAG_Y133] , write its phosphorylation enrichment.
1.09

For IDAVCYFRMEN [NPHS2_Y194_I192V_YF] , write its phosphorylation enrichment.
1.5

For HEKKAYAFCGT [RPS6KA3_Y226_S227A] , write its phosphorylation enrichment.
0.649

For VFDMLYQVANL [USP24_Y1087_L1089V] , write its phosphorylation enrichment.
2.06

For GDYLSYREFHS [ERBIN_Y1107] , write its phosphorylation enrichment.
19

For LEQDEYALRSH [HADHB_Y244] , write its phosphorylation enrichment.
1.9

For AAVDEYLEYRR [FAM221A_Y17] , write its phosphorylation enrichment.
0.698

For APQYTYAQGGQ [FLNA_Y1763] , write its phosphorylation enrichment.
0.54

For DEDFLCREELA [POR_Y575_Y575C_YF] , write its phosphorylation enrichment.
0.821

For QMQAAYQKAVA [HBD_Y131_V134A] , write its phosphorylation enrichment.
0.451

For QRTMKYTTATE [MCCC1_Y41_G46E] , write its phosphorylation enrichment.
0.496

For CTTIHYNYMCK [TP53_Y234_N239K] , write its phosphorylation enrichment.
0.551

For AAFNRYDQERF [CDC73_Y293_YF] , write its phosphorylation enrichment.
0.684

For FLNSIYQSRDE [ROS1_Y2227_K2228Q] , write its phosphorylation enrichment.
0.775

For GKFFQYDTWKQ [IGF2_Y116] , write its phosphorylation enrichment.
0.582

For KDHRDYKFQPR [SOX9_Y172_P170R_YF] , write its phosphorylation enrichment.
0.683

For DKMEAYNIDET [TEKT4_Y210] , write its phosphorylation enrichment.
0.755

For SAASSYSFSDL [EMD_Y59] , write its phosphorylation enrichment.
0.753

For PVFIKYLPEWT [PSEN1_Y240_L235P] , write its phosphorylation enrichment.
1.07

For WNRDKYAATTT [TRIM39_Y439_G436R] , write its phosphorylation enrichment.
0.542

For EEGNPYFSSTR [MCCC2_Y520_A524T_YF] , write its phosphorylation enrichment.
0.585

For NTYEKYLGEEY [TF_Y669] , write its phosphorylation enrichment.
0.935

For TVEDHDYEGGI [TKT_Y563_Y563D] , write its phosphorylation enrichment.
0.654

For ESMQSYDLDFP [UNC13B_Y243_D238E_YF] , write its phosphorylation enrichment.
0.538

For HNLDFYKMTTN [FGFR3_Y648_K650M_YF] , write its phosphorylation enrichment.
0.954

For RAIGFYSATSK [FAM120A_Y328_YF] , write its phosphorylation enrichment.
1.26

For ARGMEYLASQK [FGFR2_Y616] , write its phosphorylation enrichment.
0.669

For GRPMDYQVSIT [OTOF_Y254] , write its phosphorylation enrichment.
0.662

For VLAAQYTTVGR [SGSH_Y240_D235V] , write its phosphorylation enrichment.
0.514

For HNQDDYSFPSR [LDLR_Y845_G844D_YF] , write its phosphorylation enrichment.
0.545

For EPAVLYNLKER [MYH7_Y103_D107E] , write its phosphorylation enrichment.
0.687

For GVFSRYFTTFD [CLCA1_Y661_YF] , write its phosphorylation enrichment.
0.679

For FEKFLYFLPAS [DYNC2H1_Y346_H341Y_YF] , write its phosphorylation enrichment.
0.896

For PPGRSYSPYDY [TNS1_Y793] , write its phosphorylation enrichment.
0.664

For KGFRGYSFDDI [TMEM230_Y110_YF] , write its phosphorylation enrichment.
0.551

For ARMTNYGLPRY [TSPAN12_Y138] , write its phosphorylation enrichment.
0.66

For TENAGYYFRIS , write its phosphorylation enrichment.
0.763

For GGCQEYTGAPF [NAXD_Y85_YF] , write its phosphorylation enrichment.
0.636

For LEISPYMLSGP [LRRK2_Y1718_R1723P] , write its phosphorylation enrichment.
0.866

For CKQGKYLNWDA [ATM_Y54_S49C] , write its phosphorylation enrichment.
0.605

For SGGGSYGSGGG [KRT1_Y539] , write its phosphorylation enrichment.
0.512

For HKDNNYISMWF [PAPOLG_Y432_V433I] , write its phosphorylation enrichment.
0.975

For CSRCFYQLTKL [AR_Y858_R856C] , write its phosphorylation enrichment.
0.564

For ATVRPYRPYII [LRP5_Y1528_A1525V] , write its phosphorylation enrichment.
0.677

For VHHLVYHHHHH [CACNA1H_Y519] , write its phosphorylation enrichment.
0.963

For HILRVYSGVLP [PCNX4_Y999_G1000S] , write its phosphorylation enrichment.
0.872

For CTTIHYNYMGN [TP53_Y234_C238G] , write its phosphorylation enrichment.
0.657

For PQGVGYPPQQQ [EP300_Y2219] , write its phosphorylation enrichment.
0.655

###

Provide the recorded phosphorylation enrichment for the entries that follow.
- Target Desc: Jak2 (UniProt O60674)
- Sequence (O60674 whole entry, looked up): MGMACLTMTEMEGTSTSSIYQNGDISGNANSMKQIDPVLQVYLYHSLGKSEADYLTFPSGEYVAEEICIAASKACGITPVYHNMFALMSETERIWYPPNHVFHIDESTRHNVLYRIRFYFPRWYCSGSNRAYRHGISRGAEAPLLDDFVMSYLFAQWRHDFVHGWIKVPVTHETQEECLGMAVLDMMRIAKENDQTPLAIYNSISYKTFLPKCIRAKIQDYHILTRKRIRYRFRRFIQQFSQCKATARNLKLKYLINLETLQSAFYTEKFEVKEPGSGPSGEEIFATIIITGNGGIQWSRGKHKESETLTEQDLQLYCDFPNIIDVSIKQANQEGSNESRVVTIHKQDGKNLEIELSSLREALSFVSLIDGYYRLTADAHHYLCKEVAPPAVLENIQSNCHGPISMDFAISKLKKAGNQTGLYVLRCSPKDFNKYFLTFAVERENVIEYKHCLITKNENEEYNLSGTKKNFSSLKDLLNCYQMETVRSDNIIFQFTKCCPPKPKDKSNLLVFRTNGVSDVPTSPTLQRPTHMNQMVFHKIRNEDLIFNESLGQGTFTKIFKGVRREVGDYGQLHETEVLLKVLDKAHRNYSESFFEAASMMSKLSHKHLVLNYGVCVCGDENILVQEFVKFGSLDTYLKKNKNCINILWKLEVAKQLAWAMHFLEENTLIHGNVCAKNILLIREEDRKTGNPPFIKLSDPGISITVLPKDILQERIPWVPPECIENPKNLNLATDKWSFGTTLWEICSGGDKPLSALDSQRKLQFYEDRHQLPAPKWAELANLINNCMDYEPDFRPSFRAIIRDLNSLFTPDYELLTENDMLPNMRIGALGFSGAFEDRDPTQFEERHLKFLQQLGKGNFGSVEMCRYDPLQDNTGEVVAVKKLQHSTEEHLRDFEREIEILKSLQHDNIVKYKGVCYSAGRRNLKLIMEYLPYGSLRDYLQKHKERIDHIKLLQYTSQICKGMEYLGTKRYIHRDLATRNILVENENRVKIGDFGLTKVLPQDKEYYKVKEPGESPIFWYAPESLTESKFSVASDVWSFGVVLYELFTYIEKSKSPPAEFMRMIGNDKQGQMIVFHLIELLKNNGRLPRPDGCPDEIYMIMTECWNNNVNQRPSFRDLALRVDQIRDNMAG
- Experiment: phosphorylation enrichment, bacterial display (enrichment ratio); higher = better substrate or ligand; peptides without Tyr show the background
Could you respond with only the numeric value?

For PKGTGYIKTES [STAT1_Y701_L706S] , write its phosphorylation enrichment.
1.22

For FFIMMYTGSSV [DNAJC13_Y1131_N1135S] , write its phosphorylation enrichment.
0.824

For INASGYRIGPA [ACSM1_Y477] , write its phosphorylation enrichment.
0.401

For QKNVSYVSRVS [TASOR_Y1043_T1046R] , write its phosphorylation enrichment.
0.69

For CNNFIYGGCRG [SPINT2_Y163] , write its phosphorylation enrichment.
0.591

For PESCLYKESWI [IQGAP2_Y630_L635I] , write its phosphorylation enrichment.
1.54

###

- Target Desc: Fyn (UniProt P06241)
- Sequence (P06241 whole entry, looked up): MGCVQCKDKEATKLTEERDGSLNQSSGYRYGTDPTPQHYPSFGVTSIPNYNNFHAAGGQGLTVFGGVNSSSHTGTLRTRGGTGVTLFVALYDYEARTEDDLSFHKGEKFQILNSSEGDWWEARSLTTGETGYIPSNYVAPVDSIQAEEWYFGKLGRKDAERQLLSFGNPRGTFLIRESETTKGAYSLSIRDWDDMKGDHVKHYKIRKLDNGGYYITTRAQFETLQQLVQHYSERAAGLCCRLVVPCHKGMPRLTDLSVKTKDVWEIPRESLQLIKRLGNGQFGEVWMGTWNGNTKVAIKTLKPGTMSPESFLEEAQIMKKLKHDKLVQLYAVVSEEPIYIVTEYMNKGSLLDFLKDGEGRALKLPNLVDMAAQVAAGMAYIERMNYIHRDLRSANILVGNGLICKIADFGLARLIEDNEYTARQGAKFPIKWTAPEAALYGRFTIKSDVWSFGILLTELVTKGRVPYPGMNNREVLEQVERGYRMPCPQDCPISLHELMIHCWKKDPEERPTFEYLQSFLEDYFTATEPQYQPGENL
- Experiment: phosphorylation enrichment, bacterial display (enrichment ratio); higher = better substrate or ligand; peptides without Tyr show the background
So basically: phosphorylation enrichment at 0.5 or higher? That is fulfilled. Lower than 0.5? That is not fulfilled.

Textbook exercise: given the entry FRQNVYIPGSN [PCDHGA1_Y895_YF] , state whether its phosphorylation enrichment is greater than or equal to 0.5.
not fulfilled

Textbook exercise: given the entry ETESPYQELQG [TYROBP_Y91] , state whether its phosphorylation enrichment is greater than or equal to 0.5.
fulfilled

Textbook exercise: given the entry RRNVYYYSYLL [PTEN_Y177_Y174N] , state whether its phosphorylation enrichment is greater than or equal to 0.5.
fulfilled

Textbook exercise: given the entry KKRSVYLKVLF [CC2D2A_Y683] , state whether its phosphorylation enrichment is greater than or equal to 0.5.
not fulfilled

Textbook exercise: given the entry GLRFGYGVLGG [KRTAP20-2_Y15_YF] , state whether its phosphorylation enrichment is greater than or equal to 0.5.
fulfilled

###

- Target Desc: Grb2 SH2 (UniProt P62993)
- Sequence (P62993 whole entry, looked up): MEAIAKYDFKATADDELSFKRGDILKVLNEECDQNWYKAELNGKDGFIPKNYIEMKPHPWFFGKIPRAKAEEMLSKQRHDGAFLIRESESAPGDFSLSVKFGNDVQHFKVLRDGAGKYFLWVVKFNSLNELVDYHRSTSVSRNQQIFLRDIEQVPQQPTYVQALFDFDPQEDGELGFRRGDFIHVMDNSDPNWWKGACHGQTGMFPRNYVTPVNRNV
- Experiment: SH2 binding enrichment of the phosphorylated peptide, bacterial display (enrichment ratio); higher = better substrate or ligand; peptides without Tyr show the background
Measured Attribute: SH2 binding enrichment
Could you respond with only the numeric value?

For TVLWQYTGTRP [UGT1A1_Y337_R336Q] , write its SH2 binding enrichment.
1.01

For VAMDDYLKNVM [LRRK2_Y707] , write its SH2 binding enrichment.
1.01

For VTSLKYSTSPY [BRIP1_Y916] , write its SH2 binding enrichment.
0.754

For RPSRWYQFRVA [ANOS1_Y259] , write its SH2 binding enrichment.
0.771

For LKVKAYRFSIS [LCT_Y974] , write its SH2 binding enrichment.
1.25

For SLDLSYFHTSS [EMD_Y181_P183H_YF] , write its SH2 binding enrichment.
0.907

For ESMQSYDLDFP [UNC13B_Y243_D238E_YF] , write its SH2 binding enrichment.
0.824

For CTTIHYNYMGN [TP53_Y234_C238G] , write its SH2 binding enrichment.
0.926

For LIYTNYEAGKD [GSTP1_Y112] , write its SH2 binding enrichment.
1.09

For RGYRQDAYDGK [HLA-A_Y140] , write its SH2 binding enrichment.
1.3

For FEKFLYFLPAS [DYNC2H1_Y346_H341Y_YF] , write its SH2 binding enrichment.
0.84

For KGEDFYCVTRH [FHL1_Y149_C153R] , write its SH2 binding enrichment.
0.766

For ENQEIYQKAFD [KPNA1_Y493] , write its SH2 binding enrichment.
0.83

For SVTFTYSPALN [TP53_Y126_C124Y_YF] , write its SH2 binding enrichment.
0.862

For CPSLPYSPVSS [CAMKK2_Y128] , write its SH2 binding enrichment.
0.978

For ADRTRYSAFGG [RBM4_Y361_A359T] , write its SH2 binding enrichment.
0.897

For FLTSSYINIST [IL23R_Y178_YF] , write its SH2 binding enrichment.
22.6

For SQQTYCRVSNM [ABCD1_Y181_Y181C] , write its SH2 binding enrichment.
0.897
